Kindly state pKd for each of the entries shown.
# system tested: HLA-A*02:01
# assay details: IEDB peptide-MHC binding, purified MHC/direct/fluorescence; filed as Kd, often an IC50 or EC50 that approximates it; bounds were set here for any values at or beyond the usual limits of such assays
# condition: source organism: Corynebacterium glutamicum
pKd: −log10 of the molar value.

Param item = IVAWTRTAT ; retrieve measured pKd.
≤ 4.70

Record: AEHDPWWAV
≤ 4.70

* * *

# system tested: HLA-A*69:01
# assay details: IEDB peptide-MHC binding, purified MHC/direct/fluorescence; filed as Kd, often an IC50 or EC50 that approximates it; bounds were set here for any values at or beyond the usual limits of such assays
# condition: source organism: Orthohantavirus seoulense
observed property: Kd

Look up Kd for this sequence: KPKHLYVSM
≥ 20 µM

* * *

# system tested: HLA-A*31:01
# assay details: IEDB peptide-MHC binding, purified MHC/competitive/fluorescence; filed as Kd, often an IC50 or EC50 that approximates it; bounds were set here for any values at or beyond the usual limits of such assays
# condition: source organism: Fowlpox virus
observed property: pKd
As a rule, pKd stands for the negative log10 of the concentration, concentration in M.

Field request: pKd | item: KMFTFWYMR
8.86

* * *

# system tested: HLA-A*01:01
# assay details: IEDB peptide-MHC binding, purified MHC/direct/fluorescence; filed as Kd, often an IC50 or EC50 that approximates it; bounds were set here for any values at or beyond the usual limits of such assays
# condition: source organism: Stutzerimonas stutzeri
pKd: −log10 of the molar value.
observed property: pKd

# pKd lookup, item GRGQILLGK
≤ 4.70

* * *

Exercise: state measured Kd for each of the sequences provided.
# system tested: HLA-A*02:19
# assay details: IEDB peptide-MHC binding, purified MHC/direct/fluorescence; filed as Kd, often an IC50 or EC50 that approximates it; bounds were set here for any values at or beyond the usual limits of such assays
# condition: source organism: Zaire ebolavirus

Request - read-out Kd | tested on HLA-A*02:19 | sequence ATEDPSSGY
≥ 20 µM

And the next one, TGIVSSMHY ?
≥ 20 µM

* * *

# system tested: HLA-A*23:01
# assay details: IEDB peptide-MHC binding, purified MHC/competitive/radioactivity; filed as Kd, often an IC50 or EC50 that approximates it; bounds were set here for any values at or beyond the usual limits of such assays
# condition: source organism: SARS coronavirus Tor2
observed property: log10 of Kd (log10 of the value in µM)
Heads up, the numbers here are log10 of Kd in µM units.

Entry GYLKPTTFM has what log10 of Kd?
0.40

Likewise for NFKHLREFVF ?
-0.94

Would you kindly repeat that for VWTLMNVITL ?
-1.21

Try YQCGHYTHI next.
-0.51

Thanks! And CYGVSATKL ?
1.08

Can you handle AFEKMVSLL next?
0.92

Please do the same for QFLYLYALI as well.
-3.93

* * *

# system tested: HLA-A*02:01
# assay details: IEDB peptide-MHC binding, purified MHC/competitive/fluorescence; bounds were set here for any values at or beyond the usual limits of such assays
# condition: source organism: Mycobacterium tuberculosis
observed property: pIC50
By convention, pIC50 is the negative base-10 log of a molar concentration.

What value of measured pIC50 is listed for TLLQAAPTL ?
7.30

* * *

Exercise: state measured Kd for each of the sequences provided.
# system tested: HLA-A*68:01
# assay details: IEDB peptide-MHC binding, purified MHC/competitive/radioactivity; filed as Kd, often an IC50 or EC50 that approximates it; bounds were set here for any values at or beyond the usual limits of such assays
# condition: source organism: SARS coronavirus Tor2
I only need the number, in nM, no unit after it.

Reported Kd, sequence LIGANYLGK : ____
10900

Record: KSKSFNHVLK
3660

Further, for KTVQFCDAMR ?
90.1

Then VFAYVGCYNK ?
65.3

Try this sequence too: RVYANLGER
601

Could you do the same for ATSRTLSYYK , please?
15.3

Ok, now SAQCFKMFYK
30.5

Same question, AVLDMCAALK this time
117

Further, for GANYLGKPK ?
3450

Subsequent entry: LVLLILMTAR
6750

Next record, please: TLQGPPGTGK
225

Another sequence to look at: KVNSTLEQY
955

Also NQVIVNNLDK , if possible.
13400

Consider next the sequence KFVFPLNSK in the same way.
8650

Query STCFKLMLK next
1.65

Param item: AAAYFVGYLK
1.08

Thanks! And YVKSPKFSK ?
65.5

Lookup AIDAYPLTK
6970

How about IQFMMSRRR ?
1490

* * *

# system tested: HLA-B*18:01
# assay details: IEDB peptide-MHC binding, purified MHC/competitive/radioactivity; filed as Kd, often an IC50 or EC50 that approximates it; bounds were set here for any values at or beyond the usual limits of such assays
# condition: source organism: Mammarenavirus lassaense
observed property: pKd
Formally, pKd is defined as -log10 of the concentration c, with c in mol/L.

For SEGNATPGGY , what is its reported pKd?
4.73

* * *

# system tested: HLA-B*45:06
# assay details: IEDB peptide-MHC binding, purified MHC/competitive/fluorescence; filed as Kd, often an IC50 or EC50 that approximates it; bounds were set here for any values at or beyond the usual limits of such assays
# condition: source organism: Mycobacterium tuberculosis variant bovis BCG str. Pasteur 1173P2
observed property: Kd

Query the reported Kd for HLA-B*45:06; item: RPRRASSPF
≥ 5 µM

* * *

# system tested: HLA-B*15:01
# assay details: IEDB peptide-MHC binding, purified MHC/direct/fluorescence; filed as Kd, often an IC50 or EC50 that approximates it; bounds were set here for any values at or beyond the usual limits of such assays
# condition: source organism: Vibrio cholerae
observed property: Kd (nM)
Report the value in nM with no unit label.

Item under review: KLSNAKWLA . Reported Kd?
1630

* * *

# system tested: HLA-A*02:19
# assay details: IEDB peptide-MHC binding, purified MHC/competitive/fluorescence; filed as Kd, often an IC50 or EC50 that approximates it; bounds were set here for any values at or beyond the usual limits of such assays
# condition: source organism: Entamoeba dispar SAW760
pKd: −log10 of the molar value.
observed property: pKd

State the recorded pKd for this entry: KGFFRVFKK
≤ 4.70

* * *

# system tested: HLA-A*02:12
# assay details: IEDB peptide-MHC binding, purified MHC/direct/fluorescence; filed as Kd, often an IC50 or EC50 that approximates it; bounds were set here for any values at or beyond the usual limits of such assays
# condition: source organism: Bacillus cereus 03BB108
observed property: Kd (nM)
Please state the figure in nM; there is no need to write the unit.

So what's the measured Kd for this one? AQMVWIHGV
71

* * *

# system tested: HLA-A*02:12
# assay details: IEDB peptide-MHC binding, purified MHC/competitive/fluorescence; filed as Kd, often an IC50 or EC50 that approximates it; bounds were set here for any values at or beyond the usual limits of such assays
# condition: source organism: Entamoeba dispar SAW760
pKd: −log10 of the molar value.
observed property: pKd

Recorded pKd of KGFFRVFKK , please.
≤ 4.70

* * *

# system tested: HLA-B*40:01
# assay details: IEDB peptide-MHC binding, purified MHC/direct/fluorescence; filed as Kd, often an IC50 or EC50 that approximates it; bounds were set here for any values at or beyond the usual limits of such assays
# condition: source organism: Influenza A virus (A/Puerto Rico/8/34/Mount Sinai(H1N1))
pKd: −log10 of the molar value.
observed property: pKd

I'm curious: which pKd was measured for KTTYWWDGL tested on HLA-B*40:01?
≤ 5.30

* * *

# system tested: HLA-A*24:02
# assay details: IEDB peptide-MHC binding, purified MHC/competitive/radioactivity; filed as Kd, often an IC50 or EC50 that approximates it; bounds were set here for any values at or beyond the usual limits of such assays
# condition: source organism: Dengue virus 1 Brazil/97-11/1997
observed property: pKd
Bear in mind: pKd is minus log10 of a mol/L concentration; give just that figure.

Request the reported pKd associated with SWLVHKQWFL
5.57

Another: DWVPTSRTTW
6.05

* * *

# system tested: HLA-A*68:02
# assay details: IEDB peptide-MHC binding, purified MHC/competitive/fluorescence; filed as Kd, often an IC50 or EC50 that approximates it; bounds were set here for any values at or beyond the usual limits of such assays
# condition: source organism: Vaccinia virus Tian Tan
pKd: −log10 of the molar value.
observed property: pKd

Form field: reported pKd of KVFFGPIYY
≤ 4.70

* * *

# system tested: HLA-B*27:05
# assay details: IEDB peptide-MHC binding, purified MHC/competitive/fluorescence; filed as Kd, often an IC50 or EC50 that approximates it; bounds were set here for any values at or beyond the usual limits of such assays
# condition: source organism: Escherichia coli str. K-12 substr. MG1655
observed property: Kd (nM)
Numbers only; they are read as nM.

What does the record list as Kd for GRQAPTADV ?
285
